target: yeast prion protein Sup-NM (Saccharomyces cerevisiae, UniProt P05453)
Sequence (P05453 1-254 limits assumed): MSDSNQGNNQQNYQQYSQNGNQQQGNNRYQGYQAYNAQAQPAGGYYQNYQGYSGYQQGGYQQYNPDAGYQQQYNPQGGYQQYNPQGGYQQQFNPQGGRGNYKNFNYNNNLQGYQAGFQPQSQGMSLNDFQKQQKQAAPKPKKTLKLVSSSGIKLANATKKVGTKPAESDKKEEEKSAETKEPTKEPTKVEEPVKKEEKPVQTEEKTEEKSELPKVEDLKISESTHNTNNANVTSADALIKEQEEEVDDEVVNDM
PROPERTY MEASURED: IC50

State its IC50 on yeast prion protein Sup-NM (Saccharomyces cerevisiae, UniProt P05453): COc1cc(C)c2c(Oc3cccc(C(F)(F)F)c3)c(OC)cc(NC(C)CCCN)c2n1 (racemic)
11.2 µM

---

target: UniProt P05067; experiment: Inhibition of amyloid fibrillogenesis, Congo Red assay
Sequence (P05067 672-713): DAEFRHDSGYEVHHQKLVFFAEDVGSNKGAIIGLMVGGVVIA
pIC50: −log10 of the molar value.
Listing of recorded pIC50 by entry.

// solved cases for pIC50 follow
compound="COc1cc(CO)c2c(Oc3cccc(C(F)(F)F)c3)c(OC)cc(NC(C)CCCN)c2n1 (centres unmarked)" property_measured=pIC50 assay_result=~4.98
compound=CCCCCCN(CCCCCC)CCCCCCNc1cc(OC)cc2c(C)ccnc12 property_measured=pIC50 assay_result="> 4.96"
compound="COc1cc(NC(C)CCC(C)(C)N)c2nccc(C)c2c1Oc1cccc(C(F)(F)F)c1 (centres unmarked)" property_measured=pIC50 assay_result="4.19 to 4.49"
compound="COc1cc(NC(C)CCCN)c2nccc(C)c2c1Oc1cccc(C(F)(F)F)c1 (centres unmarked)" property_measured=pIC50 assay_result=4.64

In the following, a different compound is considered.
Write down the reported pIC50 of COc1cc(NCCCCCNC(C)C)c2nccc(C)c2c1 , test system: UniProt P05067.
~4.80
